Test system: GFPY40 reporter (GFP containing an amber codon) in HEK293 cells stably expressing pylRS
testName: Amber suppression-dependent GFP expression (GFPY40 reporter), transient transfection, flow cytometry
Assay type: cell-based
setupConditions: 1 ug GFPY40 reporter and 1 ug tRNA expression plasmid
valueType: GFP MFI, FIG. 9

molecule	result
Vault B tRNA: tRNA-B downstream of the Vault promoter 5′ region (nucleic acid, Synthetic sequence Vault tRNA-B construct, tRNA-B downstream of the Vault promoter 5′ region) DNA: TGGTCGCTGAGTCATGCTGAAGCACTCTCTTTTTGACTCACTCTTTGTGACGTAGGTCTTTCTCACCAGTCAATAAAATATAATCCGAAAGCAACCTCCCACCAGGAAACCTGATCATGTAGATCGAATGGACTCTAAATCCGTTCAGCCGGGTTCGATTCCCGGGGTTTCCGGACAAGTGCGGTTTTT	168,298
B tRNA: tRNApyl Methanosarcina mazei with A52C mutation (B-box) (nucleic acid, expressed or natural sequence) DNA: GGAAACCTGATCATGTAGATCGAATGGACTCTAAATCCGTTCAGCCGGGTTCGATTCCCGGGGTTTCCG	89,869
WT tRNA: wild type tRNApyl gene of Methanosarcina mazei without extragenic promoter (nucleic acid, listed as Methanosarcina mazei, expressed or natural sequence, wild type tRNApyl gene of Methanosarcina mazei without extragenic promoter) DNA: GGAAACCTGATCATGTAGATCGAATGGACTCTAAATCCGTTCAGCCGGGTTAGATTCCCGGGGTTTCCG	25,459
7SL B tRNA: tRNA-B downstream of the 7SL promoter 5′ region (nucleic acid, Synthetic sequence 7SL tRNA-B construct, tRNA-B downstream of the 7SL promoter 5′ region) DNA: CCCAGTTGATGACGTCACCATACCACAGCTTCTAGTGCTATTCTGCGCCGGTATCCGACCACCAGGAAACCTGATCATGTAGATCGAATGGACTCTAAATCCGTTCAGCCGGGTTCGATTCCCGGGGTTTCCGGACAAGTGCGGTTTTT	167,024
H1-tRNA: WT tRNApyl under control of the H1 promoter, positive control (nucleic acid, Synthetic sequence H1 tRNA-WT construct) DNA: AATATTTGCATGTCGCTATGTGTTCTGGGAAATCACCATAAACGTGAAATCCCTATCAGTGATAGAGACTTATAAGTTCCCTATCAGTGATAGAGACACCAGGAAACCTGATCATGTAGATCGAATGGACTCTAAATCCGTTCAGCCGGGTTAGATTCCCGGGGTTTCCGGACAAGTGCGGTTTTTTT	241,901
